tested on: SK-OV-3 ovarian; assay: NCI tumour cell line growth inhibition, 48 h; in the data active means GI50 below about 0.43 µM; inactive means the rest
Would you mind answering with one of these outcomes? active, inactive

Solved cases (4 shown):
CC/C(=C(/c1ccc(O)cc1)c1ccc(OCCN)cc1)c1ccccc1: inactive
O=C(/C(=C/c1ccc([N+](=O)[O-])cc1)SCc1ccc(Cl)cc1)c1ccc(F)cc1: inactive
CCOC(=O)c1cc(C(=O)c2cc(OC)c(OC)c(OC)c2)n2c1ccc1ccccc12: inactive
COc1ccc2c(O)c(/C=C3\N=Nc4ccccc43)oc2c1C[C@@H]1CCNC[C@H]1F: inactive

Hi, do you know how CCNC(=O)Nc1ccc(Oc2ccnc3ccc4c(ccn4C)c23)cc1 came out in this test?
inactive

Hi, do you know how N#C[Se]CCN1C(=O)C2C(C1=O)[C@H]1C=C[C@@H]2S1 (stereo partly drawn) came out in this test?
inactive

Hi, do you know how S=C(NCCNC(=S)[S][Sn]([c]1ccccc1)([c]1ccccc1)[c]1ccccc1)[S][Sn]([c]1ccccc1)([c]1ccccc1)[c]1ccccc1 came out in this test?
active

Hi, do you know how COc1ccc2c(c1)CC[C@@H]1[C@@H]2CC[C@]2(C)c3c(cc(C(=O)O)c4sccc34)C[C@@H]12 came out in this test?
inactive

Hi, do you know how COc1ccc(Sc2nc3cc(N)cc(N)c3nc2-c2ccccc2)cc1 came out in this test?
inactive

Hi, do you know how COc1ccc(Cn2cc3c(c2-c2ccccc2)CCc2cnoc2-3)cc1OC came out in this test?
inactive

Hi, do you know how CCCCCCCCCCCC(=O)N1CCN(C(C)=O)CC1 came out in this test?
inactive

Hi, do you know how NC1CCCCC1N.O=[Se]([O-])[O-].[Pt+4] (stereo not drawn) came out in this test?
inactive

----------
Reported GI50 by item:
system: SF-268 CNS; assay: NCI tumour cell line growth inhibition, 48 h

Below, 5 compounds whose answers are already recorded.
C=C1C(=O)O[C@H]2C[C@@H]1CC/C(C)=C/CC/C(C)=C/CC[C@@]2(C)O: > 100 µM
Cn1nc(C(F)(F)F)cc1-c1c[nH]c(OCc2ccc(Cl)cc2)c(-c2ccc(Cl)c(C(F)(F)F)c2)c1=O: 1.08 µM
COc1ccc2cc(C(=O)/C=C/c3ccc(N(C)C)cc3)ccc2c1: 42.6 µM
CC1=CCCC2C1(C)CCC(C)C2(C)Cc1cc(O)ccc1O (centres undefined): 5.4 µM
C[C@@H](NC(=O)/C(C#N)=C/c1ccc([N+](=O)[O-])cc1)c1ccccc1: 3.69 µM

Fill blank: measured GI50 of the compound N#Cc1c(N2CCOCC2)nc(=S)[nH]c1-c1ccccc1 is ____.
33.5 µM

Fill blank: measured GI50 of the compound COc1cc2c(cc1Cc1cccc(Cl)c1F)c(=O)c(C(=O)O)cn2[C@@H](CO)C(C)C is ____.
5.42 µM

Fill blank: measured GI50 of the compound O=C([O][Hg][CH2]C1OCCOC1[CH2][Hg][O]C(=O)c1ccccc1)c1ccccc1 (centres undefined) is ____.
17.2 µM

Fill blank: measured GI50 of the compound Cn1cc(C2=C(c3c4n(c5ccccc35)CCC(CN)C4)C(=O)NC2=O)c2ccccc21 (centres undefined) is ____.
3.95 µM

----------
test system: PC-3 prostate; assay: NCI tumour cell line growth inhibition, 48 h
Note to self: values exactly at 30 µM are Yes. So TGI at or above 30 µM is Yes, below is No.

Solved cases (3 shown):
O=[N+]([O-])c1ccc(Oc2c(Cl)cc(S(=O)(=O)/N=C(\NO)Nc3ccc(Cl)cc3)cc2Cl)c(Cl)c1: No
Cc1nc(-c2nc(-c3ccc(OC(F)(F)F)cc3)no2)nn1Cc1cccc(N2CCC(S(C)(=O)=O)CC2)c1: Yes
C=C(C)[C@@]1(O)CCCC[C@@H]1CC(Sc1ccccc1)Sc1ccccc1: Yes

Consider now this further compound.
Would you say NC(N)=NC(N)=Nc1cnccn1 shows TGI at minimum 30 µM?
Yes
